- System: Escherichia coli TOP10
- Assay: shrunken log2 fold change of peptide-encoding DNA abundance (4.5 h post-induction vs induction); higher = less antimicrobial activity (less host growth inhibition)
- Conditions used: time post-induction: 4.5 h; library: site-saturation at positions 5, 18, 19, 20
Measured endpoint: shrunken log2 fold change
Number, no unit, nothing else.

Query: // shrunken log2 fold change lookup, key: `RRIRMRPPRLPRPRPRPFAIPRP`
Reply: -0.0351

Query: // shrunken log2 fold change lookup, key: `RRIRSRPPRLPRPRPRPTQWPRP`
Reply: 0.354

Query: // shrunken log2 fold change lookup, key: `RRIRSRPPRLPRPRPRPHSWPRP`
Reply: 0.122

Query: // shrunken log2 fold change lookup, key: `RRIRNRPPRLPRPRPRPQRLPRP`
Reply: 0.0491

Query: // shrunken log2 fold change lookup, key: `RRIRHRPPRLPRPRPRPMETPRP`
Reply: -0.0865

Query: // shrunken log2 fold change lookup, key: `RRIRNRPPRLPRPRPRPCMKPRP`
Reply: -0.507

Query: // shrunken log2 fold change lookup, key: `RRIRMRPPRLPRPRPRPPPWPRP`
Reply: 1.38

Query: // shrunken log2 fold change lookup, key: `RRIRSRPPRLPRPRPRPPQRPRP`
Reply: 0.451

----------
- System: Escherichia coli TOP10;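 note: peptides expressed intracellularly from a pBAD plasmid library in pooled LB shake-flask culture, induced with 0.3% L-arabinose, DNA abundance read by NGS, three biological replicates, DESeq2 with apeglm shrinkage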
- Assay: shrunken log2 fold change of peptide-encoding DNA abundance (4.5 h post-induction vs induction); higher = less antimicrobial activity (less host growth inhibition)
- Conditions used: time post-induction: 4.5 h; library: site-saturation at positions 5, 18, 19, 20
Please respond with reported shrunken log2 fold change for every item in the list.
Number, no unit, nothing else.

Query: // shrunken log2 fold change lookup, key: `RRIRERPPRLPRPRPRPQGHPRP`
Reply: -0.0972

Query: // shrunken log2 fold change lookup, key: `RRIRERPPRLPRPRPRPQIMPRP`
Reply: -0.398

Query: // shrunken log2 fold change lookup, key: `RRIRVRPPRLPRPRPRPNHNPRP`
Reply: -0.638

Query: // shrunken log2 fold change lookup, key: `RRIRRRPPRLPRPRPRPLNSPRP`
Reply: 0.134

Query: // shrunken log2 fold change lookup, key: `RRIRFRPPRLPRPRPRPATAPRP`
Reply: 0.106

Query: // shrunken log2 fold change lookup, key: `RRIRNRPPRLPRPRPRPKPGPRP`
Reply: 0.235

Query: // shrunken log2 fold change lookup, key: `RRIRPRPPRLPRPRPRPWHYPRP`
Reply: 0.0497

Query: // shrunken log2 fold change lookup, key: `RRIRQRPPRLPRPRPRPYFNPRP`
Reply: -0.82

Query: // shrunken log2 fold change lookup, key: `RRIRWRPPRLPRPRPRPRVFPRP`
Reply: 0.186

Query: // shrunken log2 fold change lookup, key: `RRIRKRPPRLPRPRPRPFTFPRP`
Reply: -0.325

Query: // shrunken log2 fold change lookup, key: `RRIRERPPRLPRPRPRPIMCPRP`
Reply: -0.275

Query: // shrunken log2 fold change lookup, key: `RRIRSRPPRLPRPRPRPFNVPRP`
Reply: -0.343

Query: // shrunken log2 fold change lookup, key: `RRIRGRPPRLPRPRPRPHCCPRP`
Reply: 0.0841

Query: // shrunken log2 fold change lookup, key: `RRIRVRPPRLPRPRPRPLTGPRP`
Reply: -0.396

Query: // shrunken log2 fold change lookup, key: `RRIRHRPPRLPRPRPRPPYKPRP`
Reply: -0.31
